Test system: osteoblastic MC3T3-E1 cells
protocol: in vitro
experimentalConditions: read-out: LC50; MC3T3-E1 cells cultured five days with monomer; n=3

compound | CC50
C=CC(=O)OCCCCOC(=O)C=C [Butanediol Acrylate, 1,4-Butanediol-di-acrylate] | < 160 µM

* * *

protocol: in vitro

molecule | CC50 (µM)
C=C(C)C(=O)OCCCCOC(=O)C(=C)C [Butanediol Methacrylate, 1,4-Butanediol di-methacrylat] | 1300

* * *

protocol: in vitro
experimentalConditions: C57BL/6, mouse, osteoblastic MC3T3-E1 cells (Subclone 4, ATCC CRL-2593)
measure: CC50 at 5 days

molecule | measure | measurement
O=C(CCS)OCC(COC(=O)CCS)(COC(=O)CCS)COC(=O)CCS [PTM] | CC50 at 5 days | > 10 mM
